Kindly supply the reported SPOT signal as a fraction of Bim BH3's signal on the same receptor and array values for the records listed here.
TGT: Bcl-xL, Q07817
Sequence (Q07817 1-209): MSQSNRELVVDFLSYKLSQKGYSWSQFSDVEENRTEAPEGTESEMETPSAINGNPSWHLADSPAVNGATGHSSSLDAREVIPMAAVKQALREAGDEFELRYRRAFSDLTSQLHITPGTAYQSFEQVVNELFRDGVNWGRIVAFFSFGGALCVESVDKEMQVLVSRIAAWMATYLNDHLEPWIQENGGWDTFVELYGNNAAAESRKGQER
PROTOCOL_SUMMARY: peptide SPOT array, c-Myc-tagged receptor at 1 uM or 100 nM, anti-c-Myc-Cy3
One number for each entry.

Kindly give each listed record's SPOT signal as a fraction of Bim BH3's signal on the same receptor and array.
1. PFKKMDFSRNLYDIGEQLDSEDLASL [CASP8]
2. CGEWTRRSLHLRVLGRQLILPTDKGV [FAM149A]
3. FRLAQMCGLHDVVHADELEELINYYQ [CLTC]
4. PRPLSILGNLLLLCSQDMLTSLTKLS [CYP2F1]
5. FVGYNSTGAEDRHWSDMLANPRRPIA [SYT1]

1: 0.07; 2: 1.07; 3: 0.02; 4: 0.2; 5: 0.11
